Sequence of the target: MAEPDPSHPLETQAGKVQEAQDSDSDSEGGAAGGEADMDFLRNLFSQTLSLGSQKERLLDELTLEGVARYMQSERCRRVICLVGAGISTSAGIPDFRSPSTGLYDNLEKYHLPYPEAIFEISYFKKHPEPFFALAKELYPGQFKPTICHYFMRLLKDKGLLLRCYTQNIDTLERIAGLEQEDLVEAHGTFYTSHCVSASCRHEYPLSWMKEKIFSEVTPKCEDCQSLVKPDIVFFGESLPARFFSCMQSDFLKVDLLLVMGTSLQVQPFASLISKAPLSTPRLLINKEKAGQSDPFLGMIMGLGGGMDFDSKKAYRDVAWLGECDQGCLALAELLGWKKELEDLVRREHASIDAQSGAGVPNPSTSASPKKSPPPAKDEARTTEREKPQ
measurement_kind: Kd

>>> reading("COC(=O)c1c(N)n(Cc2ccc(F)cc2)c2nc3ccccc3nc12 [SKLB-11A]")
"> 200 µM"

====

assay: Pharmacokinetics in SD rats; format: in vivo, Sprague–Dawley (SD) rats; conditions: Sprague-Dawley, rat, in vivo, po, p.o. 10 mg/kg
measurement_kind: AUC(0-inf) (ng·h/mL)

>>> reading("COC(=O)c1c(N)n(Cc2ccc(F)cc2)c2nc3ccccc3nc12 [SKLB-11A]")
128

====

assay: Pharmacokinetics in SD rats; format: in vivo, Sprague–Dawley (SD) rats; conditions: Sprague-Dawley, rat, in vivo, iv, i.v. 1 mg/kg
measurement_kind: AUC(0-t)

>>> reading("COC(=O)c1c(N)n(Cc2ccc(F)cc2)c2nc3ccccc3nc12 [SKLB-11A]")
"185 ng·h/mL"

====

assay: Pharmacokinetics in SD rats; format: in vivo, Sprague–Dawley (SD) rats; details: Sprague-Dawley, rat, in vivo, iv, i.v. 1 mg/kg, read-out: VZ
measurement_kind: Vd

>>> reading("COC(=O)c1c(N)n(Cc2ccc(F)cc2)c2nc3ccccc3nc12 [SKLB-11A]")
"4.66 L/kg"

====

experiment: Pharmacokinetics in SD rats; format: in vivo, Sprague–Dawley (SD) rats; conditions: Sprague-Dawley, rat, in vivo, iv, i.v. 1 mg/kg, read-out: T1/2z (converted)
measurement_kind: half-life (min)

>>> reading("COC(=O)c1c(N)n(Cc2ccc(F)cc2)c2nc3ccccc3nc12 [SKLB-11A]")
36

====

experiment: Pharmacokinetics in SD rats; type: in vivo, Sprague–Dawley (SD) rats; settings: Sprague-Dawley, rat, in vivo, iv, i.v. 1 mg/kg
measurement_kind: Tmax (min)

>>> reading("COC(=O)c1c(N)n(Cc2ccc(F)cc2)c2nc3ccccc3nc12 [SKLB-11A]")
4.8

====

Biological target: UniProtKB Q9NTG7
Sequence (Q9NTG7 1-399): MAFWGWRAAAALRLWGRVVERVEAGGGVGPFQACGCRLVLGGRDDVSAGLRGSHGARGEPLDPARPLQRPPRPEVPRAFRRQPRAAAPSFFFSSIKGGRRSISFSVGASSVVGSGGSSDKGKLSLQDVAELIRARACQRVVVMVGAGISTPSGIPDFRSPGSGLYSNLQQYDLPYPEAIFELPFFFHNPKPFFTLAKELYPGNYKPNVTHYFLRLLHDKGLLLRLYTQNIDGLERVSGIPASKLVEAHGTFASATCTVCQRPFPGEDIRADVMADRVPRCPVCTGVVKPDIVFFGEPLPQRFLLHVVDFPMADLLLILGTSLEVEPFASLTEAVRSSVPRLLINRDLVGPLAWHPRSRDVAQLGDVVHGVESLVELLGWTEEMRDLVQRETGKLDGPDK
Assay: Fluor de Lys (FDL) fluorimetric SIRT3 deacetylase activity assay
Conditions: FDL assay; read-out: EC50, SIRT3 deacetylation activity
Description: The SIRT3 activity was assessed using the Enzo Life Sciences kit (BML-AK557-0001) per the protocol provided. A 10 μM fluoro-acetylated p53 peptide and 500 μM NAD^+ were added to SIRT3 assay buffer, incubated with test compounds and 0.5 μg recombinant SIRT3 at 37 °C for 30 min. In the mass spectrometry (MS) assay, 5 μM hSirt3 was reacted with 0.25 mM peptide and 1.25 mM NAD^+, with or without 10 μM SKLB-11A in 2% DMSO, at 37 °C. Controls included 2% DMSO without SKLB-11A. […]
measurement_kind: EC50 (µM)

>>> reading("COC(=O)c1c(N)n(Cc2ccc(F)cc2)c2nc3ccccc3nc12 [SKLB-11A]")
22

====

molecular target: SIRT3 (Homo sapiens, UniProt Q9NTG7); construct: purchased Enzo Life Sciences BML-AK557-0001; assay: Fluor de Lys (FDL) fluorimetric SIRT3 deacetylase activity assay; assay type: biochemical; conditions: 0.5 h; 100 µM; FDL deacetylation assay; compared to the control group; mean ± SD; read-out: % effect @ 100 µM of SIRT3
Measured activity at 100 µM by item
measurement_kind: activity at 100 µM (%)

>>> reading("CC(C)(C)OC(=O)Nc1c(C(=O)O)c2nc3ccccc3nc2n1Cc1ccc(F)cc1")
109
>>> reading("N#Cc1c(N)n(Cc2ccc(F)cc2)c2nc3ccccc3nc12")
131
>>> reading("COc1ccc(Cn2c(N)c(C(=O)OC(C)(C)C)c3nc4ccccc4nc32)cc1 [SKLB-11H]")
126
>>> reading("N#Cc1c(N)n(-c2ccccc2F)c2nc3ccccc3nc12")
106
>>> reading("CCOC(=O)c1c(N)n(Cc2ccc(F)cc2)c2nc3ccccc3nc12 [SKLB-11B]")
167
>>> reading("CNC(=O)c1c(N)n(Cc2ccc(F)cc2)c2nc3ccccc3nc12 [SKLB-11J]")
150
>>> reading("COc1ccc(Cn2c(N)c(C#N)c3nc4ccccc4nc32)cc1")
118
>>> reading("CCCCCNC(=O)c1c(N)n(Cc2cccc(Br)c2)c2nc3ccccc3nc12 [SKLB-11P]")
116

meta.source: paper PMC12123458
